Each record here notes measured a(CA1, O1, O2).
- target of assay: MASP-2 CCP2-SP (Homo sapiens (Human))
- Sequence (O00187 445-686): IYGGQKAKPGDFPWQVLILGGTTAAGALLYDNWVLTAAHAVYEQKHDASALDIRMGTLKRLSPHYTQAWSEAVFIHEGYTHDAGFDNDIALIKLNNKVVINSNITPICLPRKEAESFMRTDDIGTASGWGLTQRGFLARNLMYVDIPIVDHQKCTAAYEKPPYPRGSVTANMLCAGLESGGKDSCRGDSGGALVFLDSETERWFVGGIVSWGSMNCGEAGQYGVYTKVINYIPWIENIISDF
- Sequence (O00187 364-432 partner): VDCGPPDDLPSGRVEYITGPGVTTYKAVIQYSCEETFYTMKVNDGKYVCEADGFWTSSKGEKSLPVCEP
- test: MASP-2 co-crystallization, X-ray crystallography and structure analysis (H-bonds, van der Waals contacts)
- measurement conditions: Table A6-1 pharmacophore angle

{"columns": ["compound", "a(CA1, O1, O2)"],
 "data": [
  ["Cc1nc(N)ccc1CNC(=O)[C@H](C)NC(=O)[C@H]1C[C@H](Cc2ccc(-c3ccccc3)cc2)CN1", 103.11],
  ["Cc1nc(N)ccc1CNC(=O)[C@H](C)NC(=O)[C@H]1C[C@@H](c2cccc3ccccc23)CCN1.Cl.Cl [1297_4]", 103.60],
  ["C[C@H](NC(=O)[C@H]1C[C@@H](c2ccccc2)CCN1)C(=O)NCc1cc(Cl)ccc1O.Cl [1078_13]", 115.77],
  ["CC(NC(=O)C1CC(Cc2ccccc2)CN1)C(=O)NCc1cnc2c(c1)c(Cl)cn2C.Cl.Cl (mixture of isomers) [1450_A]", 94.14],
  ["N=C(N)c1ccc(CNC(=O)[C@@H]2CCN2C(=O)[C@H]2Cc3ccccc3CN2)cc1", 111.64],
  ["Cc1nc(N)ccc1CNC(=O)[C@H](C)NC(=O)[C@H]1C[C@@H](c2cccc3ccccc23)CCN1.Cl.Cl [1297_2]", 103.93],
  ["C[C@H](NC(=O)[C@H]1C[C@@H](c2ccccc2)CCN1)C(=O)NCc1cc(Cl)ccc1O.Cl [1078_11]", 109.94]
]}
